This collection of values is drawn from patent US20030148264A1.

Biological target: ERBIN PDZ-GST fusion protein (aa. 1217-1371 of SEQ ID NO:201) (human, UniProt P08515 1-218 = GST)
Sequence (P08515 whole entry, the tested form may be a part): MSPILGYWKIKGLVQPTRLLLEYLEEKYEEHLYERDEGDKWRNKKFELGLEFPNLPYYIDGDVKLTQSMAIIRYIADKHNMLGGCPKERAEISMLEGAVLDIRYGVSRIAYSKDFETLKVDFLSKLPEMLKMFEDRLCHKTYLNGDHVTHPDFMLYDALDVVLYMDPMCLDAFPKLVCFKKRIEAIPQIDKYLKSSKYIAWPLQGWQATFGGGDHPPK
Experiment: competition ELISA: ERBIN PDZ-GST binding to immobilized biotin-WETWV
Where no end group is shown, it is not given here.
I'd appreciate it if you could supply fold less potent than Ac-WETWV values for the items below.
Numeric answer only, unit fold assumed.

I'd like to know its fold less potent than Ac-WETWV. The binder in question is Ac-WETAV [Ac-WETAV]
69.3

Request the reported fold less potent than Ac-WETWV associated with Ac-AETWV [Ac-AETWV]
8.2

Tell me the measured fold less potent than Ac-WETWV of Ac-WATWV [Ac-WATWV] , please.
30.3

Consider the binder shown here: Ac-WEAWV [Ac-WEAWV] What is its recorded fold less potent than Ac-WETWV?
25.3
